All values here come from paper PMC5540273.

Recorded %Inh values for a group of compounds are listed next.
- System: JAK1(JH2domain-pseudokinase)
- Condition Label: concentration: 1 μM, replicates: in singlicate; n = 1
Kindly answer with a numeric value in %, unit omitted.

Worked examples, 8 compounds total:
Request - read-out %Inh | tested on JAK1(JH2domain-pseudokinase) | compound `CS(=O)(=O)CCNCc1ccc(-c2ccc3ncnc(Nc4ccc(OCc5ccccc5)c(Cl)c4)c3c2)o1.Cl`
0

Check `O=C(CCO)NCCn1ccc2ncnc(Nc3ccc(Oc4cccc(C(F)(F)F)c4)c(Cl)c3)c21` too.
36

Check `Nc1nc(-c2cccnc2)c(-c2ccnc3ccccc23)s1` too.
0

Check `Nc1n[nH]c2nnc(-c3ccccc3)cc12` too.
8

Check `Fc1cccc(COc2ccc(Nc3ncnc4sc(-c5ccc[nH]5)cc34)cc2Cl)c1` too.
4

Check O=C(Nc1ccccc1F)NC1CCN(c2ccnc(Nc3ccc(F)cc3)n2)C1 (stereo not drawn) too.
0

Check `Cl.O=S(=O)(c1cccc(F)c1)c1ccc(Nc2ncnc3cc(Br)sc23)cc1Cl` too.
0

Check `CSc1ccc(NC2=C(c3ccccc3Cl)C(=O)NC2=O)cc1` too.
0

Field: next compound
Request - read-out %Inh | tested on JAK1(JH2domain-pseudokinase) | compound `CNc1nccc(-c2c(-c3ccc(F)cc3)ncn2CCCN2CCOCC2)n1`
0

----------
- Test system: ULK3
- Condition Label: concentration: 1 μM, replicates: in singlicate; n = 1
Classify: criterion met when %Inh is strictly less than 9%; criterion not met when %Inh is not.

Determine if `CN1c2ccc(-c3ccc(C(=O)NCCO)cc3)cc2-c2[nH]ncc2S1(=O)=O` shows %Inh strictly lower than 9%.
criterion met

Check `O=C(CCO)NCCn1ccc2ncnc(Nc3ccc(Oc4cccc(C(F)(F)F)c4)c(Cl)c3)c21` too.
criterion met

Check `FC(F)(F)c1ccc(-c2nn3ncccc3c2-c2ccnc(Nc3cccc(C(F)(F)F)c3)n2)cc1` too.
criterion met

Check `Fc1cccc(COc2ccc(Nc3ncnc4sc(-c5ccc[nH]5)cc34)cc2Cl)c1` too.
criterion met

Check `Cn1ccc2ncnc(Nc3ccc(Oc4cccc(Cl)c4)c(Cl)c3)c21` too.
criterion not met

Continuing:
Determine if `Fc1cccc(COc2ccc(Nc3ncnc4nn5ccccc5c34)cc2Cl)c1` shows %Inh strictly lower than 9%.
criterion met

Check `FC(F)(F)c1cc(Nc2nccc(-c3c(-c4ccc(Cl)cc4)nn4ncccc34)n2)ccc1Cl` too.
criterion met

----------
- Tested on: JAK1(JH1domain-catalytic)
- Condition Label: concentration: 1 μM, replicates: in singlicate; n = 1
Rule: Condition met for %Inh not less than 6%, Condition not met for anything less.

Answer whether %Inh of `Cc1cccc(-c2nc(Nc3ccc4[nH]nnc4c3)c3ccccc3n2)n1` is greater than or equal to 6%.
Condition not met

Check `CC(C)(C)c1ccc(-n2cnc3c(N)ncnc32)cc1` too.
Condition met

Check `Cc1ccc(O)cc1Nc1cc(C(F)(F)F)nc2ccc(-c3ccncc3)cc12` too.
Condition not met

Check `Fc1ccc(Nc2nccc(-c3c(-c4ccc(Cl)cc4)nn4ncccc34)n2)cc1F` too.
Condition not met

----------
Recorded %Inh values for a group of compounds are listed next.
- System: MYO3A
- Condition Label: concentration: 1 μM, replicates: in singlicate; n = 1
Dear colleague, please send the value followed by its unit.

Which %Inh value is on record for CN1CCC(n2cnc(-c3ccc(F)cc3)c2-c2ccnc(NC3CCNCC3)n2)CC1 [SB-229482] ?
14%

Check COc1ccc(-c2oc3ncnc(N)c3c2-c2ccc(OC)cc2)cc1 [SB-589132] too.
25%

Continuing:
Which %Inh value is on record for Nc1nc(-c2ccc3c(N)n[nH]c3c2)cc(N2CCCCC2)n1 [GSK2228768] ?
0%

Check `O=C(CCO)NCCn1ccc2ncnc(Nc3ccc(Oc4cccc(C(F)(F)F)c4)c(Cl)c3)c21` too.
0%

Check O=C(c1ccc(-c2cc(-c3c[nH]nc3-c3ccccn3)ccn2)cc1)N1CCCC1 [GW792479] too.
9%

----------
Recorded %Inh values for a group of molecules are listed next.
- Tested on: ABL1-phosphorylated
- Condition Label: concentration: 1 μM, replicates: in singlicate; n = 1
Kindly answer with a numeric value in %, unit omitted.

Which %Inh value is on record for Cn1cc(-c2ccc3c(c2)CCN3C(=O)Cc2cccc(C(F)(F)F)c2)c2c(N)ncnc21 [GSK2606414] ?
0

Check FC(F)(F)c1ccc(-c2cc(-c3c[nH]nc3-c3ccccn3)ccn2)cc1 [GW599550] too.
21

Check FC(F)(F)c1ccc(-c2nn3ncccc3c2-c2ccnc(Nc3cccc(C(F)(F)F)c3)n2)cc1 [GW828205] too.
30

Field: next molecule
Which %Inh value is on record for Nc1nccc2scc(-c3ccc4c(c3)CCN4C(=O)Cc3cc(F)ccc3F)c12 [GSK2587663] ?
0

----------
- Tested on: RIOK2
- Condition Label: concentration: 1 μM, replicates: in singlicate; n = 1
Recorded %Inh values for a group of compounds are listed next.
Kindly answer with a numeric value in %, unit omitted.

Worked examples, 8 compounds total:
Which %Inh value is on record for `Cn1cc(-c2ccc3c(c2)CCN3C(=O)Cc2cccc(C(F)(F)F)c2)c2c(N)ncnc21` ?
18

Check `CC(C)N1CCC(n2cnc(-c3ccc(F)cc3)c2-c2ccnc(N)n2)CC1` too.
0

Check `Clc1cc(Nc2ncnc3cc[nH]c23)ccc1OCc1ccccn1` too.
42

Check O=C(Nc1ccccc1F)NC1CCN(c2ccnc(Nc3ccc(F)cc3)n2)C1 (stereo not drawn) too.
0

Check `Fc1cccc(COc2ccc(Nc3ncnc4nn5ccccc5c34)cc2Cl)c1` too.
0

Check `COc1cc2ncnc(Nc3ccc(OCc4ccccc4Br)c(Cl)c3)c2cc1OC.Cl` too.
0

Check `CSc1ccc(NC2=C(c3ccccc3Cl)C(=O)NC2=O)cc1` too.
0

Check `Cc1cc(N2CCC(NS(=O)(=O)c3ccc(F)cc3)CC2)nc(Nc2cccc(C#N)c2)n1.O=C(O)C(F)(F)F` too.
0

Continuing:
Which %Inh value is on record for `Cc1ccc(C)c(NC(=O)NCCNc2ccnc(Nc3ccc(F)cc3)n2)c1` ?
0

----------
- Test system: DAPK3
- Condition Label: concentration: 1 μM, replicates: in singlicate; n = 1
Recorded %Inh values for a group of molecules are listed next.
Kindly answer with a numeric value in %, unit omitted.

Which %Inh value is on record for Nc1nc(-c2ccccn2)c(-c2ccnc3ccccc23)s1 [GW548057] ?
31

Check CCCc1ccc(S(=O)(=O)NC2CCN(c3ccnc(Nc4ccc(OC)cc4)n3)C2)cc1 (centres unmarked) [GSK1379737] too.
14

Check `Cn1ccc2ncnc(Nc3ccc(Oc4cccc(Cl)c4)c(Cl)c3)c21` too.
0

Check CCn1c(-c2ccncc2)nc2cnccc21 [SB-735216] too.
0

Field: next molecule
Which %Inh value is on record for COc1ccc(NC(=O)Nc2ccc(C)c(-c3ccc(C(=O)Nc4ccncc4)cc3)c2)cc1 [GSK1398475] ?
3

----------
Recorded %Inh values for a group of molecules are listed next.
- Tested on: HUNK
- Condition Label: concentration: 1 μM, replicates: in singlicate; n = 1
Kindly answer with a numeric value in %, unit omitted.

Worked examples, 5 molecules total:
Which %Inh value is on record for `Nc1nc(-c2cccnc2)c(-c2ccnc3ccccc23)s1` ?
0

Check `COC(=O)c1c(-c2ccccc2)c2cc(Cl)ccc2c(=O)n1Cc1ccc(S(C)(=O)=O)cc1` too.
0

Check `Nc1nc(-c2ccc3c(N)n[nH]c3c2)cc(N2CCC[C@@H](C(=O)Nc3ccccc3)C2)n1.O=C(O)C(F)(F)F.O=C(O)C(F)(F)F` too.
0

Check `O=c1cc(N2CCOCC2)nc2n(Cc3cccc(Cl)c3)ccn12` too.
0

Check `O=C(c1ccc(-c2cc(-c3c[nH]nc3-c3ccccn3)ccn2)cc1)N1CCCC1` too.
9

Field: next molecule
Which %Inh value is on record for `Cl.Fc1ccccc1COc1ccc(Nc2ncnc3ccc(-c4nnc(C(F)(F)F)o4)cc23)cc1Cl` ?
3

----------
- Test system: STK36;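 note: kd values determined as follow-up on hits from a single-replicate KINOMEscan panel screen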
pKd: −log10 of the molar value.
Quantity Measured: pKd

Which pKd value is on record for Cl.Cl.c1ccc(-c2cc3ccncc3cc2OC2CCNCC2)cc1 [GSK1122999] ?
< 5.00

----------
- Tested on: CSNK2A1
- Condition Label: concentration: 1 μM, replicates: in singlicate; n = 1
Quantity Measured: %Inh (%)
Kindly answer with a numeric value in %, unit omitted.

Worked examples, 5 compounds total:
Which %Inh value is on record for COc1ccc(Nc2nccc(N3CCC(NC(=O)Nc4ccc5c(c4)OCO5)C3)n2)cc1 (stereo not drawn) [GSK1379745] ?
5

Check FC(F)(F)c1cc(Nc2nccc(-c3c(-c4ccc(Cl)cc4)nn4ncccc34)n2)ccc1Cl [GW829351] too.
0

Check CCC(CC)(CC)n1cnc2c(N)ncnc21 [SKF-97620] too.
0

Check Oc1ccc2ncnc(Nc3ccc(OCc4ccccc4)cc3)c2c1 [GI262866] too.
26

Check COc1ccc(NC(=O)Nc2ccc(C)c(-c3ccc(C(=O)Nc4ccncc4)cc3)c2)cc1 [GSK1398475] too.
0

Continuing:
Which %Inh value is on record for O=C(c1ccc(-c2cc(-c3c[nH]nc3-c3ccccn3)ccn2)cc1)N1CCCC1 [GW792479] ?
0

Check CCn1c(-c2ccncc2)nc2cnccc21 [SB-735216] too.
18

Check Cc1cc(N2CCC(NS(=O)(=O)c3ccc(F)cc3)CC2)nc(Nc2cccc(C#N)c2)n1.O=C(O)C(F)(F)F [GSK1653537] too.
1

Check `COC(=O)c1c(-c2ccccc2)c2cc(Cl)ccc2c(=O)n1Cc1ccc(S(C)(=O)=O)cc1` too.
3

Check Cl.Cn1ccc(-c2cccc(Nc3ccnc4cc(-c5nccs5)ccc34)c2)n1 [GW525701] too.
0

Check Cl.Cl.c1ccc(-c2cc3ccncc3cc2OC2CCNCC2)cc1 [GSK1122999] too.
0

Check Cc1ccc(C)c(NC(=O)NCCNc2ccnc(Nc3ccc(F)cc3)n2)c1 [GSK1379878] too.
5

Check COC(=O)c1cccc(NC(=O)NCCNc2ccnc(Nc3ccc(F)cc3)n2)c1 [GSK1379883] too.
0

Check CSc1nn2c(=O)cc(N3CCOCC3)nc2n1Cc1cccc(Cl)c1Cl [GSK2347225] too.
5

Check Fc1cccc(COc2ccc(Nc3ncnc4sc(-c5ccc[nH]5)cc34)cc2Cl)c1 [GW707818] too.
0
